Tested on: S1-endonuclease
TEST PROTOCOL: Stability to nuclease digestion by S1-endonuclease (Example 37)
Format: in vitro ADME
STUDY CONDITIONS: S1-endonuclease 0.5 units/mL, pH 5.0, 37° C.; 50% full length oligomer digested
Half-Life for Degradation less than 5 h is true; Half-Life for Degradation greater than or equal to 5 h is false.

SUBSTANCE: 2567-1: 5'-GTCTTCCA(TGCAT)GTTGTCC-3' [MP][DE][MP] [Oligomer 2567-1]
TARGET SYSTEM: S1-endonuclease
CLASS: true

SUBSTANCE: 2681-1: 5'-GTCTTCCA(TGCAT)GTTGTCC-3' [MP][PS/DE][MP] [Oligomer 2681-1]
TARGET SYSTEM: S1-endonuclease
CLASS: false

SUBSTANCE: 3256-1: 5'-GTCTTCCA(TGCAT)GTTGTCC-3' [MP(Rp)/DE][PS][MP(Rp)/DE] [Oligomer 3256-1]
TARGET SYSTEM: S1-endonuclease
CLASS: false

Shifting focus to the substance that follows.
For this substance, is Half-Life for Degradation lower than 5 h? 3169-1: 5'-GTCTTCCA(TGCAT)GTTGTCC-3' [MP(Rp)/DE][DE][MP(Rp)/DE] [Oligomer 3169-1] true
